Give Activity for every item shown.
Assay: Cytotoxicity against human RPMI8226 cells assessed as growth level at 10 uM after 48 hrs by SRB assay
Format: functional, RPMI-8226
Respond with the bare value in %.

I'd like to know its Activity. The molecule in question is C=C1CC[C@@H]2[C@](C)(COC(C)=O)[C@H](OC(C)=O)CC[C@@]2(C)[C@@H]1CC(NCc1ccccc1)C1=CCOC1=O (mixture of isomers)
3.18

// same read-out, input: C=C1CC[C@@H]2[C@](C)(COC(C)=O)[C@H](OC(C)=O)CC[C@@]2(C)[C@@H]1CC(NCCCC)C1=CCOC1=O (mixture of isomers)
60.49

Note, next up: C=C1CC[C@@H]2[C@](C)(COC(C)=O)[C@H](OC(C)=O)CC[C@@]2(C)[C@@H]1CC(Sc1ccccc1)C1=CCOC1=O (mixture of isomers)
-4.72

What about C=C1CC[C@@H]2[C@](C)(COC(C)=O)[C@H](OC(C)=O)CC[C@@]2(C)[C@@H]1CC(NCCCCCCCCCCCCCCCCCC)C1=CCOC1=O (mixture of isomers) ?
101.07

// query: C=C1CC[C@@H]2[C@](C)(COC(C)=O)[C@H](OC(C)=O)CC[C@@]2(C)[C@@H]1CC(Nc1ccc(S(=O)(=O)NC(C)=O)cc1)C1=CCOC1=O (mixture of isomers)
-16.18

Data provenance is ChEMBL document CHEMBL3734705.
